Data origin: patent US20250367166A1

Listed here: items and their measured EC50.
biological target: TLR1/TLR2 (Mus musculus, UniProt Q9EPQ1+Q9QUN7); assay: TNF-α release from thioglycolate-elicited mouse peritoneal macrophages (ELISA); conditions: read-out: EC50 (nM) (mouse): EC50 TNF-α release from mouse macrophages; Table 1
Sequence (Q9EPQ1 26-795): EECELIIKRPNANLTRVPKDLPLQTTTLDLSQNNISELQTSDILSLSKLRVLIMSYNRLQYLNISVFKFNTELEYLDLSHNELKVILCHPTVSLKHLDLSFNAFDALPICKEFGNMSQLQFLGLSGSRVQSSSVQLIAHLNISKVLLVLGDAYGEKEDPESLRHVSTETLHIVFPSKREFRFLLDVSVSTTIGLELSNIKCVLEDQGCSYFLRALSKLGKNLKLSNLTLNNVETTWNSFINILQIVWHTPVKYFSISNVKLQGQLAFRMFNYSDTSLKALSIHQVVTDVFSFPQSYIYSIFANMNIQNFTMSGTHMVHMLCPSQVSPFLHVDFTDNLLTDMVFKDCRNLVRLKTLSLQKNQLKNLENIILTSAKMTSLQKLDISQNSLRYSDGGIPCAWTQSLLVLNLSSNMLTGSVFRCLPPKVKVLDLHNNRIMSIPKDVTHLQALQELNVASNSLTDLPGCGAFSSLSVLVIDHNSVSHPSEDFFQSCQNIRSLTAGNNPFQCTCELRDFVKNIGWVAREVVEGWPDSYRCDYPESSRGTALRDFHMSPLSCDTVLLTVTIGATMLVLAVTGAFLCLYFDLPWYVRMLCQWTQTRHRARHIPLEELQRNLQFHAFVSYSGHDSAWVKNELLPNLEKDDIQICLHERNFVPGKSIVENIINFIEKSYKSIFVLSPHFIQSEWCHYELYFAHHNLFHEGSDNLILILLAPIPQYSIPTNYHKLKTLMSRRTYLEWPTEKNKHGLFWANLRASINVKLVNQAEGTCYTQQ
Sequence (Q9QUN7 25-784): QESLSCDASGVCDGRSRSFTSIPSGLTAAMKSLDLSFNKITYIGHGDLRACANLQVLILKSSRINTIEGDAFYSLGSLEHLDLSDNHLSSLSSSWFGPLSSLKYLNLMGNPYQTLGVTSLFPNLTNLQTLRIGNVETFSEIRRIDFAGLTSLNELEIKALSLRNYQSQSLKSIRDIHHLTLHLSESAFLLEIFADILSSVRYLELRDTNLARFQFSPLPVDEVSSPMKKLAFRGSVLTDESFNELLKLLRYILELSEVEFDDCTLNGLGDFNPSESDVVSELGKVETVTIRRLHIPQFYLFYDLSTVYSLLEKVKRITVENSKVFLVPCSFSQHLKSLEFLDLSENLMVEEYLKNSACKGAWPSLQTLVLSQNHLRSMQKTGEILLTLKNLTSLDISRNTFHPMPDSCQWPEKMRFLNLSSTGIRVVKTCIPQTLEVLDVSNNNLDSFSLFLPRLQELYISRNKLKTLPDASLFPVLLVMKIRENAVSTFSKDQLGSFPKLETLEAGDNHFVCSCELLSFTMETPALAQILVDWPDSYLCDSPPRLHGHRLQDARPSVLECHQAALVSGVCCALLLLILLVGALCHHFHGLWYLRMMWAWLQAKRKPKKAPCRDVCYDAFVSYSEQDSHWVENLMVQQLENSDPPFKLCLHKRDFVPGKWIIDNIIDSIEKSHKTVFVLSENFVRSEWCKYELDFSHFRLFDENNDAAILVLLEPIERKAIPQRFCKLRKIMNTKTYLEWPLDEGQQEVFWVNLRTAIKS
Reply numerically in nM, unit not repeated.

{"columns": ["Chemical Smiles", "Measurement Target", "EC50, nM"],
 "data": [
  ["COC(=O)CCCCCNC(=O)[C@@H]1CN(C(=O)c2ccc(C(=O)N3C[C@@H](C(=O)N[C@H]4C[C@@H]4c4ccccc4)[C@H](C(=O)N[C@H]4C[C@@H]4c4ccccc4)C3)cc2)C[C@H]1C(=O)N[C@H]1C[C@@H]1c1ccccc1", "TLR1/TLR2 (Mus musculus, UniProt Q9EPQ1+Q9QUN7)", 1100]
]}

# context switch: different compound, same EC50
// sample NCCCCCCCCCCCCNC(=O)[C@@H]1CN(C(=O)c2ccc(C(=O)N3C[C@@H](C(=O)N[C@H]4C[C@@H]4c4ccccc4)[C@H](C(=O)N[C@H]4C[C@@H]4c4ccccc4)C3)cc2)C[C@H]1C(=O)N[C@H]1C[C@@H]1c1ccccc1 , its EC50 was 10
